- MEASURED_TARGET: UniProt P22199
- Sequence (P22199 whole entry): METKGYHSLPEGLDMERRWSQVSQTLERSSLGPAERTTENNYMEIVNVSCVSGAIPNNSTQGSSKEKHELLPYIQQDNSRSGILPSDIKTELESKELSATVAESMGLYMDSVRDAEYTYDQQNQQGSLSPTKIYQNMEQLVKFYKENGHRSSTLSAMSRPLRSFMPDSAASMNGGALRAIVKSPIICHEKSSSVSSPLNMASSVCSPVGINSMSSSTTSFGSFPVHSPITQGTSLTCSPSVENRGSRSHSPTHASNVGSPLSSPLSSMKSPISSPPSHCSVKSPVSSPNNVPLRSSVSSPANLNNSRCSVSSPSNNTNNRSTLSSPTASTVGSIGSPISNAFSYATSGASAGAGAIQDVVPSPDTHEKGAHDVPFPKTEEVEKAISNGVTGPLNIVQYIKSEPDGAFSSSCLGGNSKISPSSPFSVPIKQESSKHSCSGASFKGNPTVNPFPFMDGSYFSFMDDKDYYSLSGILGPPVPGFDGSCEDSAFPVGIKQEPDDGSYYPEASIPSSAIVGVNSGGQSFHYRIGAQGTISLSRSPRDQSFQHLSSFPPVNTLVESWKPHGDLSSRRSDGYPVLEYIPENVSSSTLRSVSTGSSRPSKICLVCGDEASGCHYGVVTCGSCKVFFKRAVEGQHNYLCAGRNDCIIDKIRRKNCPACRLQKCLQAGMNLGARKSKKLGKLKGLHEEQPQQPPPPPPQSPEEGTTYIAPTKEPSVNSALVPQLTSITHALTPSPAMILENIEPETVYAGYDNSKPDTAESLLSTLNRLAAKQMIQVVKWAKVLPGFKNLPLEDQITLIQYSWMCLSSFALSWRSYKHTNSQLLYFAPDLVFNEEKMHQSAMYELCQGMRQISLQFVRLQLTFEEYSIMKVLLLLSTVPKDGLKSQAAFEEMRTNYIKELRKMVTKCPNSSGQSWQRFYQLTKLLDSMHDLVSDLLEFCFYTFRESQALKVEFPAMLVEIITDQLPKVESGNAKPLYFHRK
- METHOD_SUMMARY: Relative binding affinity to the rat mineralocorticoid receptor determined in rat renal cytosol using [3]Ald as ligand
Assign classes using reported RBA values and the ranges low class: < 40%; middle class: ≥ 40% and < 300%; high class: ≥ 300%, please.

Would you please look over these solved cases?
COMPOUND	CATEGORY_LABEL
CC12C=CC(=O)C=C1CCC1C2C=CC2(C)C1C1CC1[C@@]21CCC(=O)O1 (stereo partly drawn)	high class
CC(=O)S[C@@H]1CC2=CC(=O)CCC2(C)C2C=CC3(C)C(C4CC4[C@@]34CCC(=O)O4)C21 (stereo partly drawn)	high class
CC(=O)S[C@@H]1CC2=CC(=O)C=CC2(C)C2C=CC3(C)C(CC[C@@]34CCC(=O)O4)C21 (stereo partly drawn)	middle class
CC(C)(C)C(=O)S[C@@H]1CC2=CC(=O)CCC2(C)C2C=CC3(C)C(CC[C@@]34CCC(=O)O4)C21 (stereo partly drawn)	middle class
CC12C=CC(=O)C=C1CCC1C2C=CC2(C)C1CC[C@@]21CCC(=O)O1 (stereo partly drawn)	middle class
CC12CCC(=O)C=C1C[C@@H](SC(=O)c1ccccc1)C1C2C=CC2(C)C1CC[C@@]21CCC(=O)O1 (stereo partly drawn)	low class
CC12CCC(=O)C=C1C=CC1C2C=CC2(C)C1C1CC1[C@@]21CCC(=O)O1 (stereo partly drawn)	high class
CC(=O)S[C@@H]1CC2=CC(=O)C=CC2(C)C2C=CC3(C)C(C4CC4[C@@]34CCC(=O)O4)C21 (stereo partly drawn)	high class

Lookup: Kindly state the category for this compound: CC12CCC(=O)C=C1C1CC1C1C2C=CC2(C)C1CC[C@@]21CCC(=O)O1 (stereo partly drawn)
Found: low class

Lookup: Kindly state the category for this compound: CC12CCC(=O)C=C1C1CC1C1C2C=CC2(C)C1C1CC1[C@@]21CCC(=O)O1 (stereo partly drawn)
Found: high class

Lookup: Kindly state the category for this compound: CC12C=CC(=O)C=C1[C@H]1C[C@H]1C1C2C=CC2(C)C1CC[C@@]21CCC(=O)O1 (stereo partly drawn)
Found: middle class

Lookup: Kindly state the category for this compound: CC12C=CC(=O)C=C1C=CC1C2C=CC2(C)C1CC[C@@]21CCC(=O)O1 (stereo partly drawn)
Found: low class

Lookup: Kindly state the category for this compound: CC12CCC(=O)C=C1[C@H]1C[C@H]1C1C2C=CC2(C)C1CC[C@@]21CCC(=O)O1 (stereo partly drawn)
Found: middle class

Lookup: Kindly state the category for this compound: CC12CCC(=O)C=C1CCC1C2C=CC2(C)C1C1CC1[C@@]21CCC(=O)O1 (stereo partly drawn)
Found: high class

Reference source: ChEMBL document CHEMBL1123888
